I'd appreciate it if you could supply INHIBITION values for the items below.
system: Plasmodium falciparum; assay: Screen against P. falciparum Asexual Blood Stage (ABS), at 5uM; type: functional, Dd2; conditions: tested at 5 uM
The whole screen tested about 65,000 compounds, of which about 2,100 (3.2%) showed an effect of 50% or more. The median lay at about -52%. What follows is part of a selection rich in strong results, with near analogues and random picks from the rest.
One number for each entry, in %.

COc1ccc(OCCNCc2c(C)nn(C)c2N(C)C)cc1 ... -64.9

Quick request: INHIBITION for each listed item, please.
1. Cc1cccn2cc(CN3CCCC(c4ccn[nH]4)C3)nc12 (stereo unspecified)
2. CC(C)OCc1ncn2c1CN(Cc1ccoc1)CCC2
3. Cn1cc(CNC2CCC(O)CC2)c(-c2cc3ccccc3o2)n1 (stereo unspecified)
4. COc1ccc(-c2cc(N)ccn2)c(OC)c1OC

Result ::
1. -34
2. -4.62
3. -29
4. -9.16

Take each entry in turn and give its INHIBITION.
1. CCN(CCS(=O)(=O)c1ccc(Cl)cc1)Cc1ccc(OC)c(OC)c1
2. Cc1ccc2c(c1)OCCCC2NC1CCN(C)CC1 (stereo unspecified)
3. Cc1csc(CNCC(C)c2nc3ccccc3o2)n1 (stereo unspecified)
4. CC(C#N)CSc1ccccc1NCC(=O)Nc1ccccc1 (stereo unspecified)
5. CSCCc1ccc(NC(=O)NCc2ccnc(N(C)C)c2)cc1
6. CCN(C(=O)CN1CCCN(c2nc(C)ns2)CC1)C1CC1

Result ::
1: -18.6; 2: 50.3; 3: -27.8; 4: -67.8; 5: -46.2; 6: -126

----------
tested on: Plasmodium falciparum; test: Screen against P. falciparum Asexual Blood Stage (ABS), at 5uM; assay type: functional, Dd2; conditions: tested at 5 uM
Screen size: about 65,000 compounds; about 2,100 (3.2%) showed an effect of 50% or more. The median lay at about -52%. The sample holds strong results, similar compounds and a random draw of the others, so the mix is not that of the screen.
Measurement Type: INHIBITION (%)
One number for each entry, in %.

Here are 5 molecules together with their reported answers.
COc1ccc(CN2CCCC3(CCN(c4ccsc4)C3=O)C2)cc1 (stereo not drawn) ... 62.3
Cc1nn(CC(C)C)c(N(C)C)c1CNCc1cccc2c1OCO2 ... 29.4
Cc1noc(C)c1C(=O)N1Cc2ncn(C)c2C(COCC2CC2)C1 (stereo not drawn) ... -98.5
CS(=O)(=O)N1Cc2cnn(CC3CC3)c2C(COCC2CC2)C1 (stereo not drawn) ... -13.5
Cc1nn(C)c(N2CCOCC2)c1CNCc1ccnc(N(C)C)c1 ... -24.8

Lab note: each molecule below needs its INHIBITION filled in.
1. CC(=O)N1CCCC(c2nc(N(C)C)ncc2-c2cccc(F)c2)C1 (stereo not drawn)
2. Cn1ncc2c(NC3CCCN(C(=O)C4CC4)C3)nc(C(C)(C)C)nc21 (stereo not drawn)
3. CC(C)CN1C(=O)C2(CCN(Cc3nccs3)C2)c2ccccc21 (stereo not drawn)
4. COc1cc(CN(C)Cc2cccnc2)c(SC)cc1OC
5. Cc1cccc(Nc2cc(C3CCCN(CC(N)=O)C3)ccn2)n1 (stereo not drawn)

Result ::
1: -1.35; 2: -74; 3: -54.5; 4: -61.6; 5: -10.4

Can you give me INHIBITION for all of these, one by one?
1. OC1CCN(Cc2cc3c(cc2Br)OCCO3)CC1
2. O=C([C@@H]1CCO[C@@H]2CCN(Cc3cccs3)C[C@H]21)N1CCCCO1
3. CC(C)(C)n1ncc(NCC(O)c2ccccc2)c(Cl)c1=O (stereo not drawn)
4. COc1cc(Cl)c(CN2CCC(C(N)=O)C2)cc1Cl (stereo not drawn)
5. Cc1ccc(C(=O)NC(CN2CCCC2=O)c2ccccc2)cn1 (stereo not drawn)
6. CC1CCN(C(=O)CN2CC(c3nc(C4CC4)no3)C2)CC1
7. O=C(NCc1cncc2c1CCN(C1CCOCC1)C2)c1ccco1

Result ::
1. -16.3
2. -36.6
3. -162
4. 7.24
5. -81.3
6. -20.1
7. -81.7

Would you mind listing INHIBITION for each of the following molecules?
1. CCC(N)C(=O)N1CCC(OCc2ccc(Cl)c(Cl)c2)CC1 (stereo not drawn)
2. CCC[C@@H]1CN(S(=O)(=O)c2ccc(C)c(F)c2)C[C@H]1N(C)C
3. O=C(Cc1ccncc1)N1C[C@H]2CC[C@@H](C1)N(Cc1ccccc1)C2=O

Result ::
1. 65.5
2. 39.9
3. -99.2

Need INHIBITION for each of these molecules.
1. CN(C)C(=O)CN1CCCC2(CCN(c3ccsc3)C2=O)C1 (stereo not drawn)
2. CC(OCC1CC1)C(=O)Nc1cccc(C(=O)Nc2ccncc2)c1 (stereo not drawn)
3. Cc1cccc(C(=O)NC(CN2CCCC2=O)c2ccccc2)n1 (stereo not drawn)

Result ::
1. -78.3
2. -140
3. -161

----------
system: Plasmodium falciparum; test: Screen against P. falciparum Asexual Blood Stage (ABS), at 5uM; format: functional, Dd2; details: tested at 5 uM
The whole screen tested about 65,000 compounds, of which about 2,100 (3.2%) showed an effect of 50% or more. The median lay at about -52%. What follows is part of a selection rich in strong results, with near analogues and random picks from the rest.
Measurement Type: INHIBITION (%)
Numbers only, in %.

CCCn1ncc(-c2ccnc(N[C@@H]3C[C@H]4CC[C@@H]3C4)n2)c1C ... -34.5
Cc1nc(-c2ccc(F)cc2)cc(C2CCNCC2)n1 ... -33.4

State the recorded INHIBITION for every item in the following list.
1. Cc1ccc(S(=O)(=O)N2C[C@H]3C[C@H](NC(=O)c4cc[nH]n4)[C@H]3C2)cc1
2. COc1ccc(-c2cc(C3CCNCC3)nc(C)n2)cc1
3. O=C(CC1CC1)NCc1cn2c(n1)CN(Cc1cccc(F)c1)CC2
4. Cc1nc2ccccc2nc1CN1CCCC1Cn1cncn1 (centres undefined)
5. Cc1c(Cl)c(CN2CCCC2Cn2cncn2)nc2ccccc12 (centres undefined)

Result ::
1. -17.3
2. -57.7
3. -52
4. 62.3
5. 16.2

Lab note: each compound below needs its INHIBITION filled in.
1. C=C(C)CNC1CCCN(Cc2noc(C3CC3)n2)C1 (centres undefined)
2. COC(=O)N1CCC2(CC1)CC(c1ccccc1)CN(C)C2 (centres undefined)
3. CC(C)c1n[nH]c(C2CN(C(=O)Cn3ccccc3=O)CCO2)n1 (centres undefined)
4. Cc1cc(C)nc(NCCC(=O)NCCn2ccnc2C)n1
5. CC(C)(C)OC(=O)NC1CCCN(Cc2cccs2)C1 (centres undefined)
6. c1cncc(N2CCCn3nnc(CN4CCCCC4)c3C2)c1

Result ::
1. 32.4
2. -17.2
3. -40.5
4. -55.9
5. 25.8
6. -88.4

Query :: Give INHIBITION only, for Cc1nc(-c2ccccc2)cc(C2CCNCC2)n1 , using Plasmodium falciparum data.
Result :: 57.8

----------
Assignment: determine reported INHIBITION for the given compounds.
system: Plasmodium falciparum; experiment: Screen against P. falciparum Asexual Blood Stage (ABS), at 5uM; type: functional, Dd2; settings: tested at 5 uM
In all, about 65,000 compounds went through this assay and about 2,100 (3.2%) showed an effect of 50% or more. The median lay at about -52%. The sample as a whole holds a higher share of strong results than the screen did.
Numbers only, in %.

// solved cases for INHIBITION follow
CC(NCc1cccnc1)c1ccc(OCC(=O)NC2CC2)cc1 (stereo not given) ... -107
Cc1cccc(CN2CCC3(CC2)NC(=O)CC3c2ccccc2)n1 (stereo not given) ... -3.5
O=C(O)Cn1ccc(=O)c2ccccc21 ... -123
NC(=O)NCC(=O)N1C[C@@H]2CC[C@H]1CN(Cc1ccccc1)C2 ... -9.53
CC(NC(=O)CSCC(N)=O)c1ccc(Oc2ccccc2)cc1 (stereo not given) ... -25.1

# batch size: 4; output INHIBITION per entry
1. OC(CN1CCN(CCOCC(F)(F)F)CC1)c1ccccc1 (stereo not given)
2. CC(C)Cc1ncc2c(n1)CN(c1nc3ccccc3cc1CO)C2
3. Cc1ccc(C(=O)O)c(N2Cc3cnc(C(C)(C)C)nc3C2)n1
4. Cc1ccc(CNC2CCN(CCc3ccncc3)CC2)s1

Result ::
1: -64.4; 2: -50; 3: -21.3; 4: -1.43

// input: 4 compounds below; output: INHIBITION for each
1. COCCNC(=O)[C@H]1C[C@@H]2CCN(Cc3nccs3)C[C@H]2O1
2. CCOc1ccc(Cl)cc1C(C(=O)O)N1CCCC1 (stereo not given)
3. CN(C)Cc1csc(-c2nccn2Cc2ccsc2)c1
4. Cc1cccc(C(=O)N2C[C@@H]3OCCN(CCN4CCCC4)[C@@H]3C2)n1

Result ::
[-127, 2.39, 17.1, -112]

Go through the list and state INHIBITION for each entry.
1. NC(CC1CCCC1)c1ccccc1 (stereo not given)
2. O=S1(=O)CCC(CNc2cc(-c3ccccc3)nc3ccnn23)C1 (stereo not given)
3. CC(C)Nc1ncnc2c1CCN(C(=O)c1ccncc1F)CC2
4. CN(C)C(C(=O)NCc1cc(C(C)(C)C)n[nH]1)c1ccc(F)cc1 (stereo not given)
5. CN(C)CCCn1ccc(-c2cccc(-c3ccccn3)c2)n1
6. COCCN1C[C@H]2[C@@H](C1)N(Cc1ccc(C)o1)CC[C@H]2OC
7. CC(O)CCN(C)S(=O)(=O)Cc1ccc(Br)cc1 (stereo not given)
8. CC(NCc1cccc(Cl)c1)c1ccc(OCC(=O)NC2CC2)cc1 (stereo not given)

Result ::
66.7
-47.3
-7.41
-1.64
61
-41.6
-23.8
51.7

Source of measurements: ChEMBL document CHEMBL4513216
